Sourced from the RNAGym collection of RNA variant scans (doi:10.1126/science.aae0568)

B1: tRNA (parent)
chain: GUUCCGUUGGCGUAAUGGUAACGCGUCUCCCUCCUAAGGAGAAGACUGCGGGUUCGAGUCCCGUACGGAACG

- Variants of: B1
- experiment: yeast fitness relative to wild type (ratio to wild type); higher = fitter; tRNA-Arg(CCU), competitive growth, 37 C, YPD
This sample holds only a part of the variants without activity.
observable: yeast fitness
API note: the answer field is a bare number with no unit suffix.

## Task Can you share its yeast fitness? I mean this variant: GUUUCGUUGGCGUAAUGGUAACGCGUCUCCCUCCUAAGGAGAAGACUACAGGUUCGAGUCCCGUACGGAACG [C4U G48A G50A]
## Result 0.961

## Task Requested field: yeast fitness. Item: GUUCCGUUGGCGUGAUGGUAACGCGUCUCCCUCCUAAGGAGACGACUGCGGGUUCGAGUCCCGUACGGAACG [A14G A43C]
## Result 0.823

## Task Record request: yeast fitness value, item GUUCCGUUGGCGUAAUGGUAACGCGUCUCCCUCCUAAGGAGAAGACUCCGGGUUCGAGGCCCGUACGGAACG [G48C U59G]
## Result 0.722

## Task Reported yeast fitness, variant GUUCCGUUGGCGUAAUGGUAACGCGACUCCCUCCUAAGGAGAAGACUGCGGGUUCGAGUCCCGAACGGAACG [U26A U64A] : ____
## Result 0.788

## Task For GUUCCGUUGGCGUAAUGGUAAGGCGUCUCCCUCCUAAGGAGAAGACCGCGGGUUCGAGUCCCGUACGGAUCG [C22G U47C A70U] , what is its reported yeast fitness?
## Result 0.722

## Task Recorded yeast fitness for GUUCCGUUGGCGUAAAGGUAACGCGUGUCCCUCCUAAGGAGAAGAGUGCGGGUUCGAGUCCCGUACAGAACG [U16A C27G C46G G67A] , please?
## Result 0.505

## Task Using the record for GUUCCGUUGGCGUAUUGGUCACGCGUCUCCCUCCUAAGGAGAAGACUGCGGGUUCGAGUCCCGUACGGAACG [A15U A20C] , report its yeast fitness.
## Result 0.646

## Task Endpoint output: yeast fitness of GAUCCGUUAGCGUAAUGGUAACGCGUCUCCCUCCUAAGGAGAAGACUGCGGGUUCGAGUCCCGUACGGACCG [U2A G9A A70C] . Value?
## Result 0.568

## Task Give its yeast fitness value. Item: GUUCCGUUCCCGUAAUGGUAACGCGUCUGCCUCCUAAGGAGAAGAAUGCGGGUUCGAGUCCCGUACGGAACG [G9C G10C C29G C46A]
## Result 0.59

## Task Please give the measured yeast fitness for this variant: GUUCCGUUGGCGUAAUGGUAACGCGUCUCUCUCCUAAGAAGAAGACUGCGGGUUCGAGUCCUGUACGCAACG [C30U G39A C62U G68C]
## Result 0.571

## Task # get_value(readout='yeast fitness', item= GGUCCGUUGGCGUAAUGGUAACGCGCCUCCCUCCUAAGGAGAAGACUGCGGGUUCAAGUCCCGUACGGAACG [U2G U26C G56A] )
## Result 0.547
